target: Melanocortin receptor 4 (Homo sapiens, UniProt P32245, Y287A); experiment: Agonist activity at the mutant MC4R Y287A expressed in HEK293 cells by cAMP accumulation
Sequence (P32245 whole entry Y287A): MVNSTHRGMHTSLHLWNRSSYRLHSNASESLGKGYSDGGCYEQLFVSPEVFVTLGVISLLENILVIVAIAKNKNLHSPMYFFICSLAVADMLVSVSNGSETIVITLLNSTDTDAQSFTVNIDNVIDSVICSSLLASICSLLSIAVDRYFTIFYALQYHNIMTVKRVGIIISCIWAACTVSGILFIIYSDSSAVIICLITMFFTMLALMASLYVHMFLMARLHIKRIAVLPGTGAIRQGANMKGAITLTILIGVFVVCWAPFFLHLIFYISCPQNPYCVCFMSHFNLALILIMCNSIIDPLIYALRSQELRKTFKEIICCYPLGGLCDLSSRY
testReadout: pEC50
Recall that pEC50 is obtained by taking minus log10 of the concentration measured in molar.

structureString	measuredOn	pEC50
CC[C@H](C)[C@@H]1NC(=O)[C@H]([C@@H](C)O)NC(=O)[C@H](Cc2c[nH]c3ccccc23)NC(=O)[C@H](CCCN=C(N)N)NC(=O)[C@@H](Cc2ccccc2)NC(=O)[C@H](Cc2cnc[nH]2)NC(=O)[C@H]([C@@H](C)O)NC(=O)[C@H](Cc2ccc(O)cc2)NC(=O)[C@H](CO)NC(=O)[C@@H]2CCCN2C1=O	Melanocortin receptor 4 (Homo sapiens, UniProt P32245, Y287A)	6.48

We now examine a further molecule.
Supply measured pEC50 of "CN(C)[C@H]1C[C@@H](C(=O)N2CCC(Cn3cncn3)(C3CCCCC3)CC2)[C@H](c2ccc(Cl)cc2)C1" in your reply.
6.38

====

Readings of EC50 for the listed compounds
target: Melanocortin receptor 4 (Homo sapiens, UniProt P32245, Y268F); assay: Agonist activity at the mutant MC4R Y268F expressed in HEK293 cells by cAMP accumulation
Sequence (P32245 whole entry Y268F): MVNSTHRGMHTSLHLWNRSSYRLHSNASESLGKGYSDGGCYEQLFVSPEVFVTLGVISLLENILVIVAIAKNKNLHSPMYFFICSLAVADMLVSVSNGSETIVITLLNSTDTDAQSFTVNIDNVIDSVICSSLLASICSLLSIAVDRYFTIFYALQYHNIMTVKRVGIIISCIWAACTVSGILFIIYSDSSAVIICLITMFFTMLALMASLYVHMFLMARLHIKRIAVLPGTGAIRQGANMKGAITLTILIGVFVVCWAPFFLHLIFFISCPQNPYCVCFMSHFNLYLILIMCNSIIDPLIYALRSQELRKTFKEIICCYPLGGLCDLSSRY

structureString	recordedMeasurement
CN(C)[C@H]1C[C@@H](C(=O)N2CCC(Cn3cncn3)(C3CCCCC3)CC2)[C@H](c2ccc(Cl)cc2)C1	6.6 nM

Could you now consider this next compound?
Return EC50 (reported value) for this compound: "CC[C@H](C)[C@@H]1NC(=O)[C@H]([C@@H](C)O)NC(=O)[C@H](Cc2c[nH]c3ccccc23)NC(=O)[C@H](CCCN=C(N)N)NC(=O)[C@@H](Cc2ccccc2)NC(=O)[C@H](Cc2cnc[nH]2)NC(=O)[C@H]([C@@H](C)O)NC(=O)[C@H](Cc2ccc(O)cc2)NC(=O)[C@H](CO)NC(=O)[C@@H]2CCCN2C1=O"
12 nM

====

Overview of recorded EC50 for various molecules
target: Melanocortin receptor 4 (Homo sapiens, UniProt P32245); assay: Agonist activity at the human wild type MC4R expressed in HEK293 cells by cAMP accumulation
Sequence (P32245 whole entry): as the sequence (P32245 whole entry Y268F) above, with F268Y counted along it
Reply with just the number (in nM).

structureString	testReadout	recordedMeasurement
CN(C)[C@H]1C[C@@H](C(=O)N2CCC(Cn3cncn3)(C3CCCCC3)CC2)[C@H](c2ccc(Cl)cc2)C1	EC50	9.5

State, in one line, measured EC50 of "CC[C@H](C)[C@@H]1NC(=O)[C@H]([C@@H](C)O)NC(=O)[C@H](Cc2c[nH]c3ccccc23)NC(=O)[C@H](CCCN=C(N)N)NC(=O)[C@@H](Cc2ccccc2)NC(=O)[C@H](Cc2cnc[nH]2)NC(=O)[C@H]([C@@H](C)O)NC(=O)[C@H](Cc2ccc(O)cc2)NC(=O)[C@H](CO)NC(=O)[C@@H]2CCCN2C1=O"
11

====

molecular target: Melanocortin receptor 4 (Homo sapiens, UniProt P32245, I291A); assay: Agonist activity at the mutant MC4R I291A expressed in HEK293 cells by cAMP accumulation
Sequence (P32245 whole entry I291A): as the sequence (P32245 whole entry Y287A) above, with A287Y, I291A counted along it
testReadout: EC50 (nM)
Provide only the numeric value, understood in nM.

Recall and state the measured EC50 for "CC[C@H](C)[C@@H]1NC(=O)[C@H]([C@@H](C)O)NC(=O)[C@H](Cc2c[nH]c3ccccc23)NC(=O)[C@H](CCCN=C(N)N)NC(=O)[C@@H](Cc2ccccc2)NC(=O)[C@H](Cc2cnc[nH]2)NC(=O)[C@H]([C@@H](C)O)NC(=O)[C@H](Cc2ccc(O)cc2)NC(=O)[C@H](CO)NC(=O)[C@@H]2CCCN2C1=O" .
250

====

Measured EC50 of individual entries
biological target: Melanocortin receptor 4 (Homo sapiens, UniProt P32245, F184A); test: Agonist activity at the mutant MC4R F184A expressed in HEK293 cells by cAMP accumulation; type: functional, cell-based
Sequence (P32245 whole entry F184A): as the sequence (P32245 whole entry Y287A) above, with F184A, A287Y counted along it
State just the number; it will be interpreted in nM.

Give EC50 for the following molecule: "CN(C)[C@H]1C[C@@H](C(=O)N2CCC(Cn3cncn3)(C3CCCCC3)CC2)[C@H](c2ccc(Cl)cc2)C1"
1.02

Check the records and state EC50 for "CC[C@H](C)[C@@H]1NC(=O)[C@H]([C@@H](C)O)NC(=O)[C@H](Cc2c[nH]c3ccccc23)NC(=O)[C@H](CCCN=C(N)N)NC(=O)[C@@H](Cc2ccccc2)NC(=O)[C@H](Cc2cnc[nH]2)NC(=O)[C@H]([C@@H](C)O)NC(=O)[C@H](Cc2ccc(O)cc2)NC(=O)[C@H](CO)NC(=O)[C@@H]2CCCN2C1=O"
3.2

====

Measured EC50 by item
target: Melanocortin receptor 4 (Homo sapiens, UniProt P32245, I129A)
Sequence (P32245 whole entry I129A): as the sequence (P32245 whole entry Y287A) above, with I129A, A287Y counted along it
Write down the value, and be sure its unit follows.

structureString	measuredOn	recordedMeasurement
CN(C)[C@H]1C[C@@H](C(=O)N2CCC(Cn3cncn3)(C3CCCCC3)CC2)[C@H](c2ccc(Cl)cc2)C1	Melanocortin receptor 4 (Homo sapiens, UniProt P32245, I129A)	1520 nM

Please list EC50 recorded for the compound "CC[C@H](C)[C@@H]1NC(=O)[C@H]([C@@H](C)O)NC(=O)[C@H](Cc2c[nH]c3ccccc23)NC(=O)[C@H](CCCN=C(N)N)NC(=O)[C@@H](Cc2ccccc2)NC(=O)[C@H](Cc2cnc[nH]2)NC(=O)[C@H]([C@@H](C)O)NC(=O)[C@H](Cc2ccc(O)cc2)NC(=O)[C@H](CO)NC(=O)[C@@H]2CCCN2C1=O"
250 nM
